- Experimental details: Oral pharmacokinetic experiment in SD rats
- Type: in vivo
- Test settings: rat, plasma, oral administration, 20 mg/kg, mean n = 3
Reported endpoint: Tmax

Which value of Tmax has been reported for Cn1nccc1-c1ccc(C(=O)N[C@@H]2CNCC[C@H]2c2ccc(F)c(F)c2)c(F)c1 in the records?
4.17 h

----------
- Experimental details: Oral pharmacokinetic experiment in SD rats
- Format: in vivo
- Test settings: oral administration, 20 mg/kg, mean n = 3
Reported endpoint: AUC0-inf (ng·h/mL)
Please give a number only; it is taken to be in ng·h/mL.

Consider the reported AUC0-inf for these compounds:
>>> df
                        structure_as_smiles  reported_endpoint  unit_abbrev  experimental_result
0  Cn1nccc1-c1ccc(C(=O)N[C@@H]2CNCC[C@H]2c2ccc(F)c(F)c2)c(F)c1.O=C(O)C[C@H](O)C(=O)O           AUC0-inf      ng·h/mL                 2390
1  Cn1nccc1-c1ccc(C(=O)N[C@@H]2CNCC[C@H]2c2ccc(F)c(F)c2)c(F)c1.O=C(O)C(O)C(O)C(=O)O           AUC0-inf      ng·h/mL                 2160

Which value of AUC0-inf has been reported for Cn1nccc1-c1ccc(C(=O)N[C@@H]2CNCC[C@H]2c2ccc(F)c(F)c2)c(F)c1 in the records?
1500
